Test system: TK-10 renal
Experiment: NCI tumour cell line growth inhibition, 48 h

{"compound": "COc1ccc(/C=C/c2cc(OC)cc(OC)c2)cc1", "censoring.qualifier": ">", "TGI / µM": 100}
{"compound": "C=C1CC[C@@H]2C(C)(C)[C@H](O)CC[C@@]2(C)[C@@H]1COc1ccc2ccc(=O)oc2c1", "censoring.qualifier": ">", "TGI / µM": 100}
{"compound": "CC(=O)c1c(-c2ccc(Cl)cc2)c(C#N)c(=S)n(C2OC(CO)C(O)C(O)C2O)c1-c1ccccc1 (centres undefined)", "censoring.qualifier": ">", "TGI / µM": 100}
{"compound": "Cn1cc(NC(=O)c2cc(NC(=O)CCCCCCCCC(=O)Nc3cc(C(=O)Nc4cc(C(=O)NCCC(N)N)n(C)c4)n(C)c3)cn2C)cc1C(=O)NCCC(=N)N", "censoring.qualifier": "=", "TGI / µM": 38.9}
{"compound": "CC(=O)Oc1cn(-c2ccc(Cl)cc2)nc1C1=NN(C(C)=O)C(c2ccc(F)cc2F)O1 (centres undefined)", "censoring.qualifier": "=", "TGI / µM": 61.9}
{"compound": "COC(=O)c1ccc2[nH]c(O)c(C(=Nc3ccc(N(C)C(=O)CN4CCN(C)CC4)cc3)c3cccc(OC)c3)c2c1", "censoring.qualifier": "=", "TGI / µM": 3.78}
{"compound": "Cc1ccc(NN=NCCCCN=NNc2ccc(C)cc2)cc1", "censoring.qualifier": "=", "TGI / µM": 17.9}
{"compound": "COCOCCCCCO[Si](C)(C)C(C)(C)C", "censoring.qualifier": "=", "TGI / µM": 97.6}
{"compound": "N#C/C(=C/c1cccc2ccccc12)C(=O)c1ccccc1", "censoring.qualifier": ">", "TGI / µM": 100}

###

System: A498 renal
Assay: NCI tumour cell line growth inhibition, 48 h
measurement.type: TGI (µM)

{"compound": "Cc1ncc(CSc2ccccc2N)c(CO)c1O", "system": "A498 renal", "unit.name": "µM", "censoring.qualifier": ">", "result.number": 100}
{"compound": "O=c1cc(NNc2ccc(F)cc2)[nH]c(=O)[nH]1", "system": "A498 renal", "unit.name": "µM", "censoring.qualifier": ">", "result.number": 100}
{"compound": "COc1ccc(CN(Cc2ccc(OC)cc2)C(=O)CC2(O)CCc3ccccc3C2)cc1 (stereo not given)", "system": "A498 renal", "unit.name": "µM", "censoring.qualifier": ">", "result.number": 100}
{"compound": "COc1ccccc1C=NC12CC3CC(CC(C3)C1)C2", "system": "A498 renal", "unit.name": "µM", "censoring.qualifier": ">", "result.number": 100}
{"compound": "NC12CC3C4CC5(N)CC3C(C1)C(C5)C4C2", "system": "A498 renal", "unit.name": "µM", "censoring.qualifier": ">", "result.number": 100}
{"compound": "CSc1ccc(NC(=O)C2CCCCC2C(=O)O)cc1 (stereo not given)", "system": "A498 renal", "unit.name": "µM", "censoring.qualifier": ">", "result.number": 100}
{"compound": "COc1ccc(Cc2nn(C3OC(COC(C)=O)C(OC(C)=O)C(OC(C)=O)C3OC(C)=O)c(=S)n(-c3ccc(OC)cc3)c2=O)cc1 (stereo not given)", "system": "A498 renal", "unit.name": "µM", "censoring.qualifier": ">", "result.number": 100}
{"compound": "CCN(C(C)=N)c1ccccc1", "system": "A498 renal", "unit.name": "µM", "censoring.qualifier": ">", "result.number": 100}
{"compound": "CCOC(=O)c1sc2c(sc(=O)n2-c2ccccc2)c1O", "system": "A498 renal", "unit.name": "µM", "censoring.qualifier": ">", "result.number": 100}
{"compound": "CCCCCCCCCCCCCCCC(=O)Nc1ccn(C2OC(CO)C(O)C2O)c(=O)n1 (stereo not given)", "system": "A498 renal", "unit.name": "µM", "censoring.qualifier": ">", "result.number": 100}
{"compound": "O=C1/C(=C/c2ccc(Cl)cc2Cl)CN(S(=O)(=O)c2ccccc2)C/C1=C\\c1ccc(Cl)cc1Cl", "system": "A498 renal", "unit.name": "µM", "censoring.qualifier": "=", "result.number": 8.76}
{"compound": "C=C1C(=O)O[C@@H]2C[C@@H]3[C@]4(CC[C@]5(C)[C@@H]([C@H](C)CC/C=C(\\C)C=O)CC[C@@]35C)C[C@]4(CCC(=O)OC)[C@H]12", "system": "A498 renal", "unit.name": "µM", "censoring.qualifier": "=", "result.number": 5.33}
{"compound": "COc1cc(S(=O)(=O)Nc2ccc(-c3csc(N4C(=O)C(C)SC4c4cccc(Oc5ccccc5)c4)n3)cc2)ccc1Cl (stereo not given)", "system": "A498 renal", "unit.name": "µM", "censoring.qualifier": "=", "result.number": 79.3}
{"compound": "O=C1Nc2ccccc2/C1=C/C(=N/c1nnc(-c2ccc(Cl)cc2)s1)c1ccccc1", "system": "A498 renal", "unit.name": "µM", "censoring.qualifier": "=", "result.number": 26.1}
{"compound": "C[C@]12CC[C@H](OC3CCCCO3)CC1=CC[C@@H]1C2CC[C@]2(C)/C(=N/OCCC#N)CCC12 (stereo not given in full)", "system": "A498 renal", "unit.name": "µM", "censoring.qualifier": ">", "result.number": 100}
{"compound": "CC(C)N(C(=O)C12C3(C(=O)OC(C)(C)C)C4C5(C#N)C3C1(C(=O)OC(C)(C)C)C5C42C(=O)OC(C)(C)C)C(C)C (stereo not given)", "system": "A498 renal", "unit.name": "µM", "censoring.qualifier": ">", "result.number": 100}
{"compound": "COc1ccc2c(c1)c(-c1nonc1-c1cn(C)c3ccccc13)cn2C", "system": "A498 renal", "unit.name": "µM", "censoring.qualifier": "=", "result.number": 0.988}
{"compound": "Cn1c(CCC2(C)Cc3ccccc3C(=O)O2)cc2ccccc2c1=O (stereo not given)", "system": "A498 renal", "unit.name": "µM", "censoring.qualifier": ">", "result.number": 100}
{"compound": "Cn1ccnc1C(=O)/C=C/c1ccc(C(=O)Nc2ccc(F)cc2)cc1", "system": "A498 renal", "unit.name": "µM", "censoring.qualifier": "=", "result.number": 3.53}
{"compound": "COC(=O)c1ccc2cc(O)c(O)cc2c1", "system": "A498 renal", "unit.name": "µM", "censoring.qualifier": ">", "result.number": 100}
{"compound": "C[C@@H]1OC(=O)C[C@H]2CC(=O)N(CCC3CN(C(=O)c4ccccc4)c4ccccc43)C[C@@H]21 (stereo not given in full)", "system": "A498 renal", "unit.name": "µM", "censoring.qualifier": ">", "result.number": 100}
{"compound": "CN1CCN(CCOc2ccc(-c3cnc4c(-c5cccc(F)c5F)cnn4c3)cc2)CC1", "system": "A498 renal", "unit.name": "µM", "censoring.qualifier": "=", "result.number": 19.7}
{"compound": "C[C@]12OC(=O)[C@]3(O)CC[C@H]4[C@@H](C[C@@H](O)[C@@]5(Cl)CC=CC(=O)[C@]45C)[C@]45OCC6C(=O)O[C@@H]1C[C@@]6(C)[C@H](C4=O)[C@@]32O5 (stereo not given in full)", "system": "A498 renal", "unit.name": "µM", "censoring.qualifier": "=", "result.number": 2.91}
{"compound": "CN1CCN(CCCOc2ccc3ncnc(Nc4ccc(OCc5cccc(F)c5)c(Cl)c4)c3c2)CC1", "system": "A498 renal", "unit.name": "µM", "censoring.qualifier": "=", "result.number": 2.42}
{"compound": "COC(=O)C12C3C4C1C1C2C3C41C(=O)NC(C)(C)CC(=O)O (stereo not given)", "system": "A498 renal", "unit.name": "µM", "censoring.qualifier": ">", "result.number": 100}
{"compound": "COC(=O)CCC1(C)C2CCC1/C(=N/O)C2 (stereo not given)", "system": "A498 renal", "unit.name": "µM", "censoring.qualifier": ">", "result.number": 100}
{"compound": "N/C(=N\\Nc1ccc(C(=O)O)cc1)c1cnccn1", "system": "A498 renal", "unit.name": "µM", "censoring.qualifier": ">", "result.number": 100}
{"compound": "OCCOCCO/N=C1\\C(c2c(O)[nH]c3ccccc23)=Nc2ccccc21", "system": "A498 renal", "unit.name": "µM", "censoring.qualifier": "=", "result.number": 0.839}
{"compound": "CCCCC(CCCC)=NNC(=S)SC", "system": "A498 renal", "unit.name": "µM", "censoring.qualifier": ">", "result.number": 100}
{"compound": "CCOC(=O)N1CCC2(CC1)CC(=O)N(Nc1ccccc1)C2=O", "system": "A498 renal", "unit.name": "µM", "censoring.qualifier": ">", "result.number": 100}
{"compound": "O=S(=O)(Nc1cccc(Cl)c1)c1ccc(-c2cnc(C3CC3)o2)cc1", "system": "A498 renal", "unit.name": "µM", "censoring.qualifier": "=", "result.number": 9.03}
{"compound": "COC(=O)C1C(O)C(C)C(O)C(C)(O)C=C(C)C2=C3C(=C(C)C(=O)c4c(O)c(c(C)c(OC(C)=O)c43)NC(=O)C(C)=C/C=C\\C(C)(O)C(O)C(C)C1O)OCO2 (stereo not given)", "system": "A498 renal", "unit.name": "µM", "censoring.qualifier": ">", "result.number": 100}
{"compound": "C=C[C@]1(C)CC(O)C2C(=C)C(=O)OC2[C@H]1C(=C)C=O (stereo not given in full)", "system": "A498 renal", "unit.name": "µM", "censoring.qualifier": "=", "result.number": 14.7}
{"compound": "O=c1cc(N2CCOCC2)[nH]c(=O)n1-c1cccc(Cl)c1", "system": "A498 renal", "unit.name": "µM", "censoring.qualifier": ">", "result.number": 100}
{"compound": "CN(C)CCNC(=O)c1cccc2c(NC(CCCN=C(N)N)C(=O)O)c3ccccc3[n+](C)c12 (stereo not given)", "system": "A498 renal", "unit.name": "µM", "censoring.qualifier": ">", "result.number": 100}
{"compound": "COc1ccc(-c2nc(S(=O)(=O)c3ccccc3)c(S(=O)CC(=O)N3CCC(C)CC3)o2)cc1 (stereo not given)", "system": "A498 renal", "unit.name": "µM", "censoring.qualifier": "=", "result.number": 9.79}
{"compound": "c1ccc(CNc2ccc3[nH]c4cnccc4c3c2)cc1", "system": "A498 renal", "unit.name": "µM", "censoring.qualifier": "=", "result.number": 28.6}
{"compound": "COCOCCCCCO[Si](C)(C)C(C)(C)C", "system": "A498 renal", "unit.name": "µM", "censoring.qualifier": "=", "result.number": 77.8}
{"compound": "COc1ccc(/C=C/C(=O)c2cc(C(=O)O)c(OC)cc2OC)cc1OC", "system": "A498 renal", "unit.name": "µM", "censoring.qualifier": ">", "result.number": 100}
{"compound": "CCOC(=O)/C=C(\\C)Sc1cc(O)c2ccccc2c1O", "system": "A498 renal", "unit.name": "µM", "censoring.qualifier": "=", "result.number": 41.1}
